From: paper PMC2206118

# Tested Target: FIR1+2 F254L (human, UniProt Q9UHX1-2 101-299, R106G;C112S;C238A;F254L)
# Sequence (Q9UHX1 118-316 R123G/C129S/C255A/F271L): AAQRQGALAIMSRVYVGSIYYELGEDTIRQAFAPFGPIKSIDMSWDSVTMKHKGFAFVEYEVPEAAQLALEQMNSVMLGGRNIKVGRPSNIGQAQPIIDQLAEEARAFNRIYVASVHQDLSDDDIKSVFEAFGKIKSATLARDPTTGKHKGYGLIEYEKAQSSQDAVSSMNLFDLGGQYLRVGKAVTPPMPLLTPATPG
# Measurement Protocol: fluorescence anisotropy
Readout: pKd
Answers are plain numbers, as −log10 of the molar value.

Challenge: Specify measured pKd for CCTCGGGATTTTTTATTTTGTGTTATT (ssDNA) [H27 (FUSE), fluorescein] .
Response given: 6.77
